Molecular target: Thyrotropin receptor (Homo sapiens)
Assay: Secondary Concentration-Response Assay for Agonists of the Thyroid Stimulating Hormone Receptor: ELISA Activity Detection
Settings: HEK293-TSHR cells, cAMP ELISA luminescence, 1 h
Inconclusive results are not listed. Calls of active or inactive are those of the source. The call rests on the fitted dose curve.
Outcome codes: YES (active), NO (inactive)

COMPOUND	CATEGORY
COc1ccc(C2Nc3ccccc3C(=O)N2CCO)cc1COc1ccc(NC(C)=O)cc1 (centres undefined)	NO
COc1ccc(C2Nc3ccccc3C(=O)N2Cc2ccccc2)cc1COc1cccc(F)c1 (centres undefined)	NO
O=C1c2ccccc2NC(c2ccccc2)N1Cc1ccco1 (centres undefined)	NO
CCCCN1C(=O)c2ccccc2NC1c1ccc(OC)c(COc2ccc(NC(C)=O)cc2)c1 (centres undefined)	YES
COc1ccc(C2NC(=O)c3ccccc3N2)cc1COc1ccc(NC(C)=O)cc1 (centres undefined)	NO
COc1ccc(C2Nc3cccc(NS(C)(=O)=O)c3C(=O)N2Cc2ccccc2)cc1COc1ccc(NC(C)=O)cc1 (centres undefined)	YES
COc1ccc(C2Nc3ccc(O)cc3C(=O)N2Cc2ccccc2)cc1COc1ccc(NC(C)=O)cc1 (centres undefined)	YES
COc1ccc(C2Nc3cccc(F)c3C(=O)N2Cc2ccccc2)cc1COc1ccc(NC(C)=O)cc1 (centres undefined)	YES
COc1ccc(-c2nc3cccc(O)c3c(=O)n2Cc2ccccc2)cc1COc1ccc(NC(C)=O)cc1	YES

Origin of the recorded values: PubChem BioAssay AID2104
